Test System: T1, Snu13p (yeast, UniProt P39990 1-126)
T1 sequence: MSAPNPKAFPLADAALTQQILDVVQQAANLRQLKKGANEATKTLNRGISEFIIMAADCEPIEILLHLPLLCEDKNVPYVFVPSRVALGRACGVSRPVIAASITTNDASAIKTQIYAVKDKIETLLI
Assay Text: EMSA
Metric Name: pKd
Quick note: pKd values are minus log10 of concentrations in mol/L.

For the binder shown here, Se1:Ins (structured_RNA) RNA: GGACCUUUGUACCCCAGAUGAUGGGCCUUCACUGGCCUUGAUGGGUACAAAUGGCAG , give the reported pKd.
7.60
